# Assay Protocol: in vivo
# Experimental Parameters: dog, plasma
Result Type: AUC(0-inf) (µM·h)
Response body: numeric value in µM·h, unit text excluded.

CONC(=O)N(Cc1ccsc1)C1CCN([C@H](C)CCNC(=O)c2c(C)cc(Cl)[n+]([O-])c2Cl)CC1	0.37

Input: If you can, please state the reported AUC(0-inf) value of CONC(=O)N(Cc1ccsc1)C1CCN([C@H](C)CCNC(=O)c2c(C)cc(C#N)nc2Cl)CC1 .
Output: 3.24

###

# Assay Protocol: Half life in dog at 5 umol/kg, iv
# Experimental Parameters: in vivo
Result Type: half-life
# include the unit after the value

Input: If you can, please state the reported half-life value of CONC(=O)N(Cc1ccsc1)C1CCN([C@H](C)CCNC(=O)c2c(C)cc(Cl)[n+]([O-])c2Cl)CC1 .
Output: 42 min
